experimentalSystem: RORγt (Homo sapiens, UniProt P51449)
runDescription: Cofactor recruitment test (Alpha Screen, biotinylated SRC-1 peptide)
Type: biochemical
measurementContext: read-out: Signal value inhibitory rate at test compound 1 μM (%)
Experimental: Cofactor Recruitment Test Cofactor recruitment test was performed by Alpha Screen (Histidine Detection Kit, PerkinElmer) method. First, a test compound was diluted with an assay buffer (50 mM Tris-HCl (pH 7.5), 50 mM KCl, 1 mM DTT, 0.1% BSA) and added to a 384 well plate by 5 μL. […] The mixture was stood in a dark place for 1 hr, and the signal value was measured by Envision (PerkinElmer).
Kindly return Criterion met if reported inhibition at 1 µM is no lower than 90%; return Criterion not met if it is lower.

compound	assignedClass
COc1ccc2c(c1)CCN(C(=O)c1cc(O)no1)C2C(=O)Nc1ccc(C(C)(C)C)c(Cl)c1 (centres unmarked) [Example 10]	Criterion not met
CCOc1ccc2c(c1)CCN(C(=O)CCCC(=O)O)[C@H]2C(=O)Nc1ccc([Si](C)(C)C)c(C#N)c1 [Example 221]	Criterion met
COc1ccc2c(n1)CCN(C(=O)CCCC(=O)O)[C@H]2C(=O)Nc1ccc([Si](C)(C)C)c(F)c1 [Example 140]	Criterion met
COc1ccc2c(c1)CCN(C(=O)c1ccc(=O)[nH]c1)C2C(=O)Nc1ccc([Si](C)(C)C)cc1 (centres unmarked) [Example 2]	Criterion not met
C[Si](C)(C)c1c(F)cc(NC(=O)[C@H]2c3ccc(S(C)(=O)=O)cc3CCN2C(=O)CCCC(=O)O)cc1F [Example 235]	Criterion not met
CCOc1ccc2c(c1)CCN(C(=O)CCCC(=O)O)[C@H]2C(=O)Nc1cc(F)c([Si](C)(C)C)c(F)c1 [Example 179]	Criterion met
COc1ccc2c(c1)OCCN(C(=O)Cc1cc(O)no1)[C@H]2C(=O)Nc1cc(F)c([Si](C)(C)C)c(F)c1 [Example 56]	Criterion not met
CCOc1ccc2c(c1)CCN(C(=O)N1CC(CC(=O)O)C1)[C@H]2C(=O)Nc1cc(F)c([Si](C)(C)C)c(F)c1 [Example 231]	Criterion met
COCC(C)(C)c1c(F)cc(NC(=O)[C@H]2c3ccc(OC)cc3CCN2C(=O)c2cc(O)no2)cc1F [Example 97]	Criterion met

----------
Reported inhibition at 3 µM values for a set of compounds
experimentalSystem: UniProt:P51449
runDescription: Jurkat reporter test (human IL-17 ROR response element luciferase, RORγt vector)
Type: cell-based
measurementContext: Jurkat, read-out: Luminescence level inhibitory rate at test compound 3 μM (%)

compound	inhibition at 3 µM, %
COc1ccc2c(n1)CCN(C(=O)CCCC(=O)O)[C@H]2C(=O)Nc1ccc([Si](C)(C)C)c(F)c1	102
COc1ccc2c(c1)CCN(C(=O)c1cc(O)no1)C2C(=O)Nc1ccc([Si](C)(C)C)c(F)c1 (centres unmarked)	99.6
COc1ccc2c(c1)CCN(C(=O)CCCC(=O)O)[C@H]2C(=O)Nc1ccc([Si](C)(C)C)c(F)c1	104
COc1ccc2c(c1)CCN(C(=O)N1CC(CC(=O)O)C1)[C@H]2C(=O)Nc1ccc([Si](C)(C)C)c(F)c1	100
CCOc1ccc2c(n1)CCN(C(=O)c1cc(O)no1)[C@H]2C(=O)Nc1ccc([Si](C)(C)C)c(F)c1	103
CCOc1ccc2c(n1)CCN(C(=O)c1cc(O)no1)[C@H]2C(=O)Nc1cc(F)c([Si](C)(C)C)c(F)c1	102
CC[Si](C)(C)c1c(F)cc(NC(=O)[C@H]2c3ccc(OC)nc3CCN2C(=O)CCCC(=O)O)cc1F	101
CCOc1ccc2c(c1)CCN(C(=O)CCC(=O)O)[C@H]2C(=O)Nc1cc(F)c([Si](C)(C)C)c(F)c1	100
COc1ccc2c(c1)CCN(C(=O)NCCCC(=O)O)[C@H]2C(=O)Nc1cc(F)c([Si](C)(C)C)c(F)c1	101
COc1ccc2c(c1)CCN(C(=O)Cc1cc(O)no1)[C@H]2C(=O)Nc1ccc([Si](C)(C)C)c(C#N)c1	100
CCOc1ccc2c(c1)CCN(C(=O)CCCC(=O)O)[C@H]2C(=O)Nc1cc(F)c([Si](C)(C)C)c(F)c1	102
COCc1ccc2c(c1)CCN(C(=O)CCCC(=O)O)[C@H]2C(=O)Nc1ccc([Si](C)(C)C)c(F)c1	103
CCOc1ccc2c(n1)CCN(C(=O)Cc1cc(O)no1)[C@H]2C(=O)Nc1ccc([Si](C)(C)C)c(F)c1	102
COc1ccc2c(c1)OCCN(C(=O)Cc1cc(O)no1)[C@H]2C(=O)Nc1cc(F)c([Si](C)(C)C)c(F)c1	99.9

----------
Form field: inhibition at 1 µM (one value per entry).
experimentalSystem: RORγt (Homo sapiens, UniProt P51449)
Sequence (P51449 1-497 isoform P51449-2): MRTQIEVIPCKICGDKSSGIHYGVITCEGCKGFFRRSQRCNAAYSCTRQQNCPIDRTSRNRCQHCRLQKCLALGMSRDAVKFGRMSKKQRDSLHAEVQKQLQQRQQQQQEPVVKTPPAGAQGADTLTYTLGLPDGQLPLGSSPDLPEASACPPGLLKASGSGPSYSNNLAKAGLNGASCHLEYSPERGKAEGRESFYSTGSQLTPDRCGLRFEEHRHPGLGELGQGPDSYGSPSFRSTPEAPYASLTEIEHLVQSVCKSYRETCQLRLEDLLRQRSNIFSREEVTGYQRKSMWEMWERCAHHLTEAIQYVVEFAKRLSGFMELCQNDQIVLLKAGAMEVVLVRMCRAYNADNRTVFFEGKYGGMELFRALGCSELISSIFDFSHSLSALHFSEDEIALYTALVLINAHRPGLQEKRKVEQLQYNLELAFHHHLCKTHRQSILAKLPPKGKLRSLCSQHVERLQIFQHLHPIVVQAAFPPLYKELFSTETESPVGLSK
runDescription: Cofactor recruitment test (Alpha Screen, biotinylated SRC-1 peptide)
Assay type: biochemical
measurementContext: read-out: Signal value inhibitory rate at test compound 1 μM (%)

inputSmiles	inhibition at 1 µM [%]
CCOCC(C)(C)c1c(F)cc(NC(=O)[C@H]2c3ccc(OCC)cc3CCN2C(=O)c2cc(O)no2)cc1F	85
COc1ccc2c(c1)CCN(C(=O)NCCCC(=O)O)[C@H]2C(=O)Nc1cc(F)c([Si](C)(C)C)c(F)c1	94
COCC(C)(C)c1ccc(NC(=O)[C@H]2c3ccc(OC)cc3CCN2C(=O)c2cc(O)no2)cc1F	83
COCc1ccc2c(c1)CCN(C(=O)c1cc(O)no1)[C@H]2C(=O)Nc1cc(F)c(C(C)(C)COC)c(F)c1	98

----------
experimentalSystem: RORγt (Homo sapiens)
runDescription: Jurkat reporter test (human IL-17 ROR response element luciferase, RORγt vector)
Type: cell-based
measurementContext: test compound 3 μM, Jurkat cells; read-out: Luminescence level inhibitory rate at test compound 3 μM (%)

compound	experimentalSystem	inhibition at 3 µM
COCC(C)(C)c1c(F)cc(NC(=O)[C@H]2c3ccc(OC)cc3CCN2C(=O)c2cc(O)no2)cc1F	RORγt (Homo sapiens)	102%
CCOc1ccc2c(c1)CCN(C(=O)c1cc(O)no1)[C@H]2C(=O)Nc1cc(F)c(C(C)(C)COC)c(F)c1	RORγt (Homo sapiens)	101%
COc1ccc2c(c1)CCN(C(=O)c1cc(O)no1)C2C(=O)Nc1ccc(C(C)(C)C)c(F)c1 (centres unmarked)	RORγt (Homo sapiens)	101%
COCc1ccc2c(c1)CCN(C(=O)CCCC(=O)O)[C@H]2C(=O)Nc1cc(F)c(C(C)(C)C)c(F)c1	RORγt (Homo sapiens)	101%
COc1ccc2c(c1)CCN(C(=O)Cc1nnc(C)o1)[C@H]2C(=O)Nc1cc(F)c(C(C)(C)C(=O)N2CCCC2)c(F)c1	RORγt (Homo sapiens)	102%
CCOc1ccc2c(n1)CCN(C(=O)c1cc(O)no1)[C@H]2C(=O)Nc1cc(F)c2c(c1)CCC2(C)C	RORγt (Homo sapiens)	100%
COc1ccc2c(c1)CCN(C(=O)c1cc(O)no1)C2C(=O)Nc1cc(F)c2c(c1)CCC2(C)C (centres unmarked)	RORγt (Homo sapiens)	99.7%
COc1ccc2c(c1)CCN(C(=O)Cc1cccnc1)[C@H]2C(=O)Nc1cc(F)c(C(C)(C)C(=O)N2CCCC2)c(F)c1	RORγt (Homo sapiens)	101%
COCc1ccc2c(c1)CCN(C(=O)c1cc(O)no1)[C@H]2C(=O)Nc1cc(F)c2c(c1)CCC2(C)C	RORγt (Homo sapiens)	103%
COCC(C)(C)c1c(F)cc(NC(=O)[C@H]2c3ccc(OC)cc3CCN2C(=O)Cc2cc(O)no2)cc1F	RORγt (Homo sapiens)	102%
CCOCC(C)(C)c1c(F)cc(NC(=O)[C@H]2c3ccc(OCC)cc3CCN2C(=O)Cc2cc(O)no2)cc1F	RORγt (Homo sapiens)	99%
CCOc1ccc2c(c1)CCN(C(=O)Cc1cc(O)no1)[C@H]2C(=O)Nc1cc(F)c(C(C)(C)COCCOC)c(F)c1	RORγt (Homo sapiens)	83%
CCOc1ccc2c(c1)CCN(C(=O)Cc1cc(O)no1)[C@H]2C(=O)Nc1cc(F)c(C(C)(C)COCC(F)F)c(F)c1	RORγt (Homo sapiens)	99%
COc1ccc2c(c1)CCN(C(=O)Cc1cc(O)no1)[C@H]2C(=O)Nc1ccc(C(C)(C)C)c(C#N)c1	RORγt (Homo sapiens)	100%
